Just for reference, patent US20120270915A1 is where these values come from.

- assayed-target: EP2 receptor (Homo sapiens, UniProt P43116)
- Sequence (P43116 whole entry): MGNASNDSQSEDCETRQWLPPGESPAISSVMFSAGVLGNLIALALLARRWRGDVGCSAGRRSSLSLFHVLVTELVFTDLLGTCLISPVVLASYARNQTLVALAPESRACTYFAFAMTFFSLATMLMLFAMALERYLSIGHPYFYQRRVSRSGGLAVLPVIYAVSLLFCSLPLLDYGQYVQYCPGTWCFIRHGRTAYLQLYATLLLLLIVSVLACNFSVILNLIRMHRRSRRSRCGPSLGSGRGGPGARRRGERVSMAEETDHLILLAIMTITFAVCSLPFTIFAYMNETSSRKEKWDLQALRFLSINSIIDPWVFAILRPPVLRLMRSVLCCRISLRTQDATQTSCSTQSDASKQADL
- experiment-notes: Prostanoid receptor antagonism (FLIPR), EP2
- Format: cell-based
- run-conditions: Table 2, NA = inactive
observation-type: Kb (nM)

P. CCS(=O)(=O)NC(=O)CCc1ccc(OC)cc1CN1CCC[C@H]1c1nc(C(=O)NCCCCC2CCCCC2)co1 [Example 12l]
Q. COc1ccc(CCC(=O)NS(=O)(=O)N(C)C)c(CN2CCC[C@H]2c2nc(C(=O)NCCCCC3CCCCC3)co2)c1 [Example 12k]
R. COc1ccc(CCC(=O)NS(=O)(=O)c2ccc(Cl)s2)c(CN2CCC[C@H]2c2nc(C(=O)NCCCCC3CCCCC3)co2)c1 [Example 12j]
S. COc1ccc(CCC(=O)NS(=O)(=O)CCCF)c(CN2CCC[C@H]2c2nc(C(=O)NCCCCC3CCCCC3)co2)c1 [Example 12h]
Order the 4 listed items from lowest to highest according to Kb. Provide the labels, sequenced as the question asks.
R, P, Q, S
